Entries and their % inhib of 125I-5C9 IgG binding at 0.1 µg/mL
# tested_target: T1, TSHR coated onto tubes (human, UniProt P16473 21-764, limits assumed)
# T1 construct: whole entry named; also called TSHR coated tubes; thyrotropin receptor
# method: TSHR coated tubes, competitor 125I-5C9 IgG
endpoint_label: % inhib of 125I-5C9 IgG binding at 0.1 µg/mL

[
  {
    "binder": "14D3 IgG (antibody, V domains shown) VH: DVQMQQPGPELVKPGASLKMSCKASGYSFTGYNMHWVKQSHGKSLEWIGYIDPYSGATSYNQKFEGKATLTVDKSSSTAYMQLNSLTSEDSAVYYCARRWDWDPYAMDYWGQGTSVTVSS VL: NILMTQSPAILSVSPGERVSFACRASQSIGTSIHWYQQRTNGSPRLLIKYASESISGIPSRFSGSGSGTDFTLSINSVESEDIADYYCQQTNRWPLTFGAGTKLELKR",
    "endpoint_value": "10%"
  },
  {
    "binder": "9D33 IgG (antibody, V domains shown) VH: DVQIQQPGTELVKPGASVRLSCKASGYTFTTYWMHWVKQRPGQGLEWIGEIDPSDSYTNYNQKFKGKATLTVDKSSSTAYMHLSSLTSEDSAVYYCSRNYGSGYYFDYWGQGTTLTVSS VL: GVEMTQSPAIMSASPGEKVTMTCSASSSVSYMHWYQQKSGTSPKRWIYDTSKLASGVPARFSGSGSGTSYSLTISSMETEDAATYYCQQWSSNPWTFGGGTKLEIK",
    "endpoint_value": "29%"
  },
  {
    "binder": "16E5 IgG (antibody, V domains shown) VH: DVQLVQSGPELVKPGASVKMSCKASGYSFTGYNMHWVKQSHGKSLEWIGYIDPYNGATSYNQKFEDKATLTVDKSSSTAYMQLNSLTSEDSAVYYCARRWDWDPYAMDYWGQGTSVTVSS VL: DILLTQSPAILSVSPGERVSFSCRASQSIGTSIHWYQQRTNGSPRLLIKYASESISGIFSRFSGSGSGTDFTLTINSVESEDIADYYCQQSNRWPLTFGAGTKLELKR",
    "endpoint_value": "34%"
  },
  {
    "binder": "2B4 IgG (antibody, V domains shown) VH: DVQLQQSGTVLARPGASVRMSCKASGYSFTRYWIHWLKQRPGQGLEWIGAIFPGNRDTSYNQRFKGKAEVTAVTSASTAYLDLSSLTNEDSAVYYCTRWPYYGSIYVNFDYWGQGTTLTVSS VL: DIVMTQSPLSLPVSLGDQASISCRTSQNLVHRNGNTYLHWYLQKPGQSPKLLIYKISNRFSGVPDRFSGSGSGTDFTLKISRVEAEDLGVYFCSQGTHVPPTFGGGTKLEIKR",
    "endpoint_value": "23%"
  }
]

Reference for the values: patent US8840891
